tested on: soybean; assay: Test B pre/postemergence soybean; assay type: in vivo, Glycine max; conditions: Rate 62 g/ha, Postemergence; scale of 0 to 10 where 0 is no effect and 10 is complete control

# structureAsSmiles, Soybean plant response rating
data = [
    ("CCCCn1c(=O)on(C(=O)N(c2ccc(F)cc2)C(C)C)c1=O", 2),
    ("Cc1nc(C)c(Cn2c(=O)on(C(=O)N(c3ccc(Cl)cc3)C(C)C)c2=O)s1", 3),
    ("Cc1noc(C)c1-n1c(=O)on(C(=O)N(c2ccc(F)cc2)C(C)C)c1=O", 1),
    ("Cc1nn(C)c(C)c1-n1c(=O)on(C(=O)N(c2ccccc2)C(C)C)c1=O", 2),
    ("CC(C)Cn1c(=O)on(C(=O)N(c2ccc(F)cc2)C(C)C)c1=O", 1),
    ("CC(C)N(C(=O)n1oc(=O)n(CC2(C)COC2)c1=O)c1ccc(F)cc1", 2),
]
